biological target: Tubulin alpha chain (Sus scrofa, UniProt P02550); assay: Concentration inhibiting tubulin polymerization; format: functional
Sequence (P02550 whole entry, looked up): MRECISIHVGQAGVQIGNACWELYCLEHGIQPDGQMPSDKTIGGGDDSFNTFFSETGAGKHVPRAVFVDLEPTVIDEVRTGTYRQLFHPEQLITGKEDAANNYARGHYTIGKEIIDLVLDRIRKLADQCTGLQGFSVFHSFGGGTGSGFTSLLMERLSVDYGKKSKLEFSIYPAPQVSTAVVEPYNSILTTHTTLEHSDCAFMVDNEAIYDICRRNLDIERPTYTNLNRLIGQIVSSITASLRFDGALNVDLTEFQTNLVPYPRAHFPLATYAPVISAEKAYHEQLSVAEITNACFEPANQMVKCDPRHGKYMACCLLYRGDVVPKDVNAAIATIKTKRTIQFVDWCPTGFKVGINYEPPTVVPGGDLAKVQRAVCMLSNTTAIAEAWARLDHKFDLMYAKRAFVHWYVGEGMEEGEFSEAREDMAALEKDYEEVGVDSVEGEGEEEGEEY
quantity.name: IC50 (µM)
The reply should contain only the number, in µM.

# input I am curious: what IC50 value has been reported for COc1ccc(S(=O)(=O)Oc2ccccc2NC(=O)c2cnccn2)cc1 ?
# output 5.2

# input COc1ccc(S(=O)(=O)Nc2cccnc2Nc2ccc(O)cc2)cc1 ?
# output 3.1

# input COc1ccc(S(=O)(=O)Oc2ccccc2/C=C/c2ccncc2)cc1 ?
# output 3.46

# input COc1ccc(S(=O)(=O)Oc2ccccc2NC(=O)c2ccccn2)cc1 ?
# output 4.06

# input COc1ccc(S(=O)(=O)Oc2ccccc2NC(=O)c2ccncc2)cc1 ?
# output 3.73
